Target: T1, recombinant biotinylated CD71 extracellular domain (Sino Biologics) with an N-terminal 6His tag (human, UniProt P02786 89-760, biotinylated (sites not given))
T1 construct: extracellular domain; also called hCD71; huCD71
T1 sequence (P02786 other isoform, or with tags, fused parts or gaps): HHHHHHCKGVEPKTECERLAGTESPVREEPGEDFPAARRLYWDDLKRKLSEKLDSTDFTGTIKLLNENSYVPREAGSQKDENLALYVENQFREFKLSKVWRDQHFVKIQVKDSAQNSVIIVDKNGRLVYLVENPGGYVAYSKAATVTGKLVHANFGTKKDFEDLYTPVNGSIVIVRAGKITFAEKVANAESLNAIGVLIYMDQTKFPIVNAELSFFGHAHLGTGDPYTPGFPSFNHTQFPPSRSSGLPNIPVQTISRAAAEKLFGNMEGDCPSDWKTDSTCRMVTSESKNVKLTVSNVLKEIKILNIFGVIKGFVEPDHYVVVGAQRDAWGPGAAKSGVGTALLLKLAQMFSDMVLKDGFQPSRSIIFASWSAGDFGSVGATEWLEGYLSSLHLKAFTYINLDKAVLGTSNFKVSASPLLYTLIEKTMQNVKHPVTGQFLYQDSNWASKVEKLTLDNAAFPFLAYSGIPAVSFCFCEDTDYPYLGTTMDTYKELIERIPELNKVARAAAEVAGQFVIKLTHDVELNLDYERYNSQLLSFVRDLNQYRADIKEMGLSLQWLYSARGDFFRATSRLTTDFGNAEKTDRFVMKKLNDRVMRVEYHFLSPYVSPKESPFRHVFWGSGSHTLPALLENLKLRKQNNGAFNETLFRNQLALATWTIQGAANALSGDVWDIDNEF
Experiment: screening ELISA, ratio
Procedure: To screen for FN3 domains that specifically bind CD71, streptavidin-coated Maxisorp plates (Nunc catalog 436110) were blocked for 1 hour in Starting Block T20 (Pierce) and then coated with biotinylated CD71 (using same antigen as in panning) or negative controls (an unrelated Fc-fused recombinant protein and human serum albumin) for 1 hour. Plates were rinsed with TBST and diluted lysate was applied to plates for 1 hour. […]
Class membership depends on huCD71/Fc alone; the intervals are bottom end: < 500; midrange: ≥ 500 and < 2000; top end: ≥ 2000

[[record]]
binder = "SEQ ID NO 42 (designed binder, FN3 domain) MLPAPKNLVVSRVTEDSARLSWTAPDAAFDSFTIEYYESFYGGEAIVLTVPGSERSYDLTGLKPGTEYYVSIYGVKGGWLSRPLSAIFTT"
labelclass = "bottom end"

[[record]]
binder = "SEQ ID NO 61 (designed binder, FN3 domain) MLPAPKNLVVSRVTEDSARLSWRVESRTFDSFLIQYQESEKVGEAIVLTVPGSERSYDLTGLKPGTEYTVSIYGVVWDTRDNPISNPLSAIFTT"
labelclass = "bottom end"

[[record]]
binder = "SEQ ID NO 51 (designed binder, FN3 domain) MLPAPKNLVVSRVTEDSARLSWTAPDAAFDSFFIKYIEWWADGEAIVLTVPGSERSYDLTGLKPGTEYLVEIYGVKGGKWSWPLSAIFTT"
labelclass = "top end"

[[record]]
binder = "SEQ ID NO 46 (designed binder, FN3 domain) MLPAPKNLVVSRVTEDSARLSWTAPDAAFDSFTIEYFEFTGTGEAIVLTVPGSERSYDLTGLKPGTEYYVSIYGVKGGLLSAPLSAIFTT"
labelclass = "bottom end"

[[record]]
binder = "SEQ ID NO 50 (designed binder, FN3 domain) MLPAPKNLVVSRVTEDSARLSWTAPDAAFDSFVIEYREGAWYGEAIVLTVPGSERSYDLTGLKPGTEYFVDITGVKGGWWSDPLSAIFTT"
labelclass = "top end"

[[record]]
binder = "SEQ ID NO 55 (designed binder, FN3 domain) MLPAPKNLVVSRVTEDSARLSWTAPDAAFDSFIIEYWEFVGYGEAIVLTVPGSERSYDLTGLKPGTEYWVAIYGVKGGDLSKPLSAIFTT"
labelclass = "midrange"

[[record]]
binder = "SEQ ID NO 45 (designed binder, FN3 domain) MLPAPKNLVVSRVTEDSARLSWTAPDAAFDSFAIYYLESYPEGEAIVLTVPGSERSYDLTGLKPGTEYWVGIDGVKGGTWSSPLSAIFTT"
labelclass = "midrange"

[[record]]
binder = "SEQ ID NO 56 (designed binder, FN3 domain) MLPAPKNLVVSRVTEDSARLSWTAPDAAFDSFVIEYFEALEGGEAIVLTVPGSERSYDLTGLKPGTEYFVGIYGVKGGPLSKPLSAIFTT"
labelclass = "midrange"

[[record]]
binder = "SEQ ID NO 49 (designed binder, FN3 domain) MLPAPKNLVVSRVTEDSARLSWTAPDAAFDSFGISYLEWWEDGEAIVLTVPGSERSYDLTGLKPGTEYWVSIAGVKGGKRSYPLSAIFTT"
labelclass = "midrange"

